Quick record of MIC values for E. coli NCTC 13476.
VALUE_KIND: MIC

1) COc1ccc2ccc(=O)n(CCN[C@H]3CC[C@H]4[C@@H](C3)OC(=O)N4c3ccc4c(n3)NC(=O)CO4)c2n1 [Compound 4] = < 1 µg/mL
2) COc1ccc2ccc(=O)n(CCN[C@H]3CC[C@H]4[C@H](C3)OC(=O)N4c3ccc4c(n3)NC(=O)CO4)c2c1 [Compound 102] = < 1 µg/mL
3) O=C1COc2cnc(N3C(=O)O[C@@H]4C[C@H](NCCn5c(=O)cnc6cc(F)c(F)cc65)CC[C@H]43)nc2N1 [Compound 38] = 1 to 10 µg/mL
4) N#Cc1ccc2ccc(=O)n(CCN[C@H]3CC[C@H]4[C@@H](C3)OC(=O)N4c3ccc4c(n3)NC(=O)CO4)c2n1 [Compound 15] = 1 to 10 µg/mL
